tested on: B16-F10 (NRAS mutation); experiment: MTT cell viability assay, B16-F10 melanoma; assay type: cell-based; conditions: Mus musculus, B16-F10, 24 h, 24 h, read-out: IC50 on cell viability, B16-F10 (NRAS mutation)
pIC50: −log10 of the molar value.
measurement.type: pIC50

Let me know recorded pIC50 for C=C1C(=O)OC2CC3=C[C@@H](C/C(C)=C/C(OC(=O)/C=C/c4cccc(OC(F)(F)F)c4)[C@H]12)OC3=O (stereo partly drawn) , thanks.
< 5.00

Output pIC50 of C=C1C(=O)OC2CC3=C[C@@H](C/C(C)=C/C(OC(=O)Cc4cccc5cccnc45)[C@H]12)OC3=O (stereo partly drawn)
< 5.00

Could you please provide reported pIC50 for C=C(C)C(=O)O[C@H]1CC2=C[C@@H](C/C(C)=C/[C@H]3OC(=O)C(=C)[C@H]13)OC2=O [DET, deoxyelephantopin, reference compound] ? Thanks!
~5.22

---

tested on: HTB-68 (NRAS mutation); experiment: MTT cell viability assay, HTB-68 melanoma; type: cell-based, human; details: Homo sapiens, 24 h
measurement.type: IC50

Let me know recorded IC50 for C=C1C(=O)OC2CC3=C[C@@H](C/C(C)=C/[C@@H](OC(=O)[C@@H](OC)c4ccc5ccccc5c4)[C@H]12)OC3=O (stereo partly drawn) , thanks.
4.5 µM

Give me measured IC50, please, for this molecule: C=C1C(=O)OC2CC3=C[C@@H](C/C(C)=C/C(OC(=O)CC(C)C)[C@H]12)OC3=O (stereo partly drawn)
> 10 µM

Give the value of IC50 reported for the following: C=C1C(=O)OC2CC3=C[C@@H](C/C(C)=C/C(OC(=O)C4CCCC4)[C@H]12)OC3=O (stereo partly drawn)
> 10 µM

Assign IC50 to the following record: C=C(CC)C(=O)OC1/C=C(\C)C[C@@H]2C=C(CC3OC(=O)C(=C)[C@@H]13)C(=O)O2 (stereo partly drawn)
> 10 µM

Please look at this molecule and report its IC50: C=C1C(=O)OC2CC3=C[C@@H](C/C(C)=C/C(OC(=O)/C=C/c4ccc(OC)c(OC)c4)[C@H]12)OC3=O (stereo partly drawn)
> 10 µM

Identify the reported IC50 for the following entry. C=C1C(=O)OC2CC3=C[C@@H](C/C(C)=C/C(OC(=O)/C=C/c4cccc(OC)c4)[C@H]12)OC3=O (stereo partly drawn)
3.2 µM
